CONDITION DESCRIPTION: human, microsomes
Description: Liver Microsomal Stability Protocol Test compounds and one control compound (verapamil) were tested in 3 different species in duplicate sets. Test compound concentration: 1 uM; Protein concentration: 0.5 mg/mL (for dog, rat, and human liver microsomes); Cofactor: NADPH-Regenerating system (NRS) solution; Time-points: 2, 12, 25, 45, and 65 minutes. […] After plates were vortexed, they were centrifuged for 30 minutes to remove proteins. […] In vitro measured t1/2 was used to calculate Clint values.
ATTRIBUTE MEASURED: Human Pred Cl.

// solved cases for Human Pred Cl. follow
What the record says about COC(=O)N[C@H](C(=O)N[C@@H](Cc1ccc(C#Cc2ccc(N3CC4CCC(C3)N4C3COC3)nc2)cc1)[C@@H](O)CN(Cc1c(F)cc(-c2ncccn2)cc1F)NC(=O)[C@@H](NC(=O)OC)C(C)(C)C(F)(F)F)C(C)(C)C(F)(F)F [Example 101] : Human Pred Cl. is <0.11 L/H/kg

What the record says about COC(=O)N[C@H](C(=O)N[C@@H](Cc1ccc(C#Cc2ccc(N3CC4CCC(C3)N4C3(C)COC3)nc2)cc1)[C@@H](O)CN(Cc1c(F)cc(-c2ccn(C(F)F)n2)cc1F)NC(=O)[C@@H](NC(=O)OC)C(C)(C)C(F)(F)F)C(C)(C)C(F)(F)F [Example 144] : Human Pred Cl. is 0.95 L/H/kg

What the record says about COC(=O)N[C@H](C(=O)N[C@@H](Cc1ccc(-c2cnc(N3CC4CCC(C3)N4C3COC3)nc2)cc1)[C@@H](O)CN(Cc1c(F)cc(-c2ccn(C(F)F)n2)cc1F)NC(=O)[C@@H](NC(=O)OC)C(C)(C)C(F)(F)F)C(C)(C)C(F)(F)F [Example 199] : Human Pred Cl. is <0.11 L/H/kg

API: the following record is the query input.
What the record says about COC(=O)N[C@H](C(=O)N[C@@H](Cc1ccc(C#Cc2ccc(N3CC4CCC(C3)N4C3COC3)nc2)cc1)[C@@H](O)CN(Cc1c(F)cc(-c2ccn(C3CC3)n2)cc1F)NC(=O)[C@@H](NC(=O)OC)C(C)(C)C(F)(F)F)C(C)(C)C(F)(F)F [Example 170] : Human Pred Cl. is <0.11 L/H/kg

---

PROCEDURE TEXT: in vivo
CONDITION DESCRIPTION: rat, in vivo, iv
// no strictly below 6 mL/min/kg in RAT IV CL; yes otherwise

Consider the worked cases shown below.
I'd appreciate it if you could say whether COC(=O)N[C@H](C(=O)N[C@@H](Cc1ccc(C#Cc2cnc(N3CC4CCC(C3)N4C3COC3)nc2)cc1)[C@@H](O)CN(Cc1c(F)cc(-c2cnn(C(F)F)c2)cc1F)NC(=O)[C@@H](NC(=O)OC)C(C)(C)C(F)(F)F)C(C)(C)C(F)(F)F has RAT IV CL at least equal to 6 mL/min/kg. yes

I'd appreciate it if you could say whether COC(=O)N[C@H](C(=O)N[C@@H](Cc1ccc(C#Cc2cnc(N3CC4CCC(C3)N4C3COC3)nc2)cc1)[C@@H](O)CN(Cc1c(F)cc(-c2ncccn2)cc1F)NC(=O)[C@@H](NC(=O)OC)C(C)(C)C(F)(F)F)C(C)(C)C(F)(F)F has RAT IV CL at least equal to 6 mL/min/kg. no

I'd appreciate it if you could say whether COC(=O)N[C@H](C(=O)N[C@@H](Cc1ccc(C#Cc2ccc(N3CC4CCC(C3)N4C3COC3)nc2)cc1)[C@@H](O)CN(Cc1c(F)cc(-c2ccn(C(F)F)n2)cc1F)NC(=O)[C@@H](NC(=O)OC)C(C)(C)C(F)(F)F)C(C)(C)C(F)(F)F has RAT IV CL at least equal to 6 mL/min/kg. yes

I'd appreciate it if you could say whether COC(=O)N[C@H](C(=O)NN(Cc1c(F)cc(-c2ccn(C(F)F)n2)cc1F)C[C@H](O)[C@H](Cc1ccc(C#Cc2ccc(N3CC4CCC(C3)N4C3COC3)nc2)cc1)NC(=O)[C@@H](NC(=O)OC)C(C)(C)C(F)(F)F)C(C)(C)C has RAT IV CL at least equal to 6 mL/min/kg. no

Further cases:
I'd appreciate it if you could say whether COC(=O)N[C@H](C(=O)N[C@@H](Cc1ccc(-c2cnc(N3CC4CCC(C3)N4C3COC3)nc2)cc1)[C@@H](O)CN(Cc1c(F)cc(-c2ccn(C(F)F)n2)cc1F)NC(=O)[C@@H](NC(=O)OC)C(C)(C)C(F)(F)F)C(C)(C)C(F)(F)F has RAT IV CL at least equal to 6 mL/min/kg. yes

I'd appreciate it if you could say whether COC(=O)N[C@H](C(=O)NN(Cc1c(F)cc(-c2ccn(C(F)F)n2)cc1F)C[C@H](O)[C@H](Cc1ccc(C#Cc2cnc(N3CC4CCC(C3)N4C3COC3)nc2)cc1)NC(=O)[C@@H](NC(=O)C1CC1)C(C)(C)C(F)(F)F)C(C)(C)C(F)(F)F has RAT IV CL at least equal to 6 mL/min/kg. no

src = patent US10294234B2
